B1: glmS ribozyme (parent)
chain: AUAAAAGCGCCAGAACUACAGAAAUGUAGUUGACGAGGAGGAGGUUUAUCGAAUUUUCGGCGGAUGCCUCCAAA

# Variants of: B1
# TEST NAME: self-cleavage kobs at 640 uM GlcN6P; higher = faster cleavage; RNA array
# SETTINGS: with glucosamine-6-phosphate
Variants at the floor of the assay were thinned out.
Overview of recorded self-cleavage kobs at 640 uM GlcN6P for various variants
MEASURED PARAMETER: self-cleavage kobs at 640 uM GlcN6P (s⁻¹)

# RECORD SEQUENCE, MEASURED PARAMETER, UNIT, INEQUALITY OPERATOR, VALUE OBSERVED
rows = [
    ("AUAAAAGCGCCAGAACUACAGAAAUGUAGUAGACGAGGAGGAGGUUUAUCGAAUUUUCGGCGGAAGCCUCCAAA [U31A U65A]", "self-cleavage kobs at 640 uM GlcN6P", "s⁻¹", "=", 0.000399),
    ("AUAAAACCGCCAGAACUACAGAAAUGUAGUUCACGAGGAGUAGGUUGAUCGAAUUCUCGGCGGAUGCCUCCAAA [G7C G32C G41U U47G U56C]", "self-cleavage kobs at 640 uM GlcN6P", "s⁻¹", "<", "1e-05"),
    ("AUAAAAGCGCCAGAACUACAGAAAUGUAGUUGACGAGGAGGAGGUUUAUCGAAUUAUCGGCGGAUGCCACCAAA [U56A U69A]", "self-cleavage kobs at 640 uM GlcN6P", "s⁻¹", "=", "8.46e-05"),
    ("AUAAAAGCGCCAAAACUACAGAAAUGUAGUUGACGAGGAGGAGGCUUAUUGAAUUUUCGGCGGAUGCCUCGAAA [G13A U45C C50U C71G]", "self-cleavage kobs at 640 uM GlcN6P", "s⁻¹", "<", "1e-05"),
    ("AUAAAAGCGCCAGAACUACAGAAAUGUAGUUGACGACGAGGAGGUAUAUCGAAUUUUCGGCGGAUGCCUCCAAA [G37C U46A]", "self-cleavage kobs at 640 uM GlcN6P", "s⁻¹", "<", "1e-05"),
    ("AUAAAAACGCCAGAACUACAGAAAUGUAGUUGAAGAGGAGGAGGUUUAUCGAAUUUUCGGCGGAUGCCUCCAAA [G7A C34A]", "self-cleavage kobs at 640 uM GlcN6P", "s⁻¹", "<", "1e-05"),
    ("AUAAAAGCGCCAGAACUACAGAAAUGUAGUUGACGAGGAGCAGGUUUAUCGAAUUUUCGGCGGAUGCCUCCAAA [G41C]", "self-cleavage kobs at 640 uM GlcN6P", "s⁻¹", "=", 0.000131),
    ("AUAAAAGCGCUAGACCUACAGAAAUGUAGUUGACGAGGAGGAGGUUUAUCGAAUUUUCGGCGGAUGCCUCCAAA [C11U A15C]", "self-cleavage kobs at 640 uM GlcN6P", "s⁻¹", "=", 0.000194),
    ("AUAAAAGCGCCAUAACUACAGAAAUGUACUUGACGAGGAGGAGGUUUAUCGAAUUUUCGACGGAUGCCCUCAAA [G13U G29C G60A U69C C70U]", "self-cleavage kobs at 640 uM GlcN6P", "s⁻¹", "<", "1e-05"),
    ("AUAAAAGCGCCAGAACUACAGAAAUGUAGUUGACGAGGAGAAGGUUUAUCGAAUUUUCGGCGGAGGCCUCCAAA [G41A U65G]", "self-cleavage kobs at 640 uM GlcN6P", "s⁻¹", "<", "1e-05"),
    ("AUAAAAGCGCCGGAACUACAGAAAUGUAGUUGACGAGGAGGAGGUUUAUCGAAUUUUCGGCGGAUGCCUCUAAA [A12G C71U]", "self-cleavage kobs at 640 uM GlcN6P", "s⁻¹", "=", 0.000183),
    ("AUAAAAGCGCCAGAACUACAGAAAUGUAGUUGACGAGGAGGAGGAUUAUCGAGUUUUCGGCGGAUGCCUCCAAA [U45A A53G]", "self-cleavage kobs at 640 uM GlcN6P", "s⁻¹", "=", 0.0131),
    ("AUAAAAGAGCCAGAGCUACAGAAAUGUAGUUGACGAGGAGGAGGUUUAUCGAAUUUUCGACGGAUGCCUCCAAA [C8A A15G G60A]", "self-cleavage kobs at 640 uM GlcN6P", "s⁻¹", "<", "1e-05"),
    ("AUAAAAGCGCCAGAACUACAGAAAUGUAAUUGACGAGGAGGAGGCGUAUCGACUUUUCGGCGGAUGGCGCCAAA [G29A U45C U46G A53C C67G U69G]", "self-cleavage kobs at 640 uM GlcN6P", "s⁻¹", "<", "1e-05"),
    ("AUAAAAGCGCCAGAACUACAGAAAUGUAGUUGACGAGGAGGAGGUUUAUCGAAUUUGGGGCGGAUGCUUCCAAA [U57G C58G C68U]", "self-cleavage kobs at 640 uM GlcN6P", "s⁻¹", "=", "7.15e-05"),
    ("AUAAAAGCGCCAGAACUACAGAAAUGUAGUUGACUAGGAUGAGGUUUAUCGAAUUUUCGGCGUAUGCCUCGAAA [G35U G40U G63U C71G]", "self-cleavage kobs at 640 uM GlcN6P", "s⁻¹", "<", "1e-05"),
    ("AUAAAAGCGCCAGAACUACAGAAAUGUAGUUGACGAGGAGGAGGUUUUUCGAAUUUUCCGCGGAUGCCUCCAAA [A48U G59C]", "self-cleavage kobs at 640 uM GlcN6P", "s⁻¹", "<", "1e-05"),
    ("AUAAAAGCGCCAGAACUACAGAAAUGUAGUUGACGAGCAGGAGGUUUAUCGAAUUGUUGGCGGAUGCCUCCAAA [G38C U56G C58U]", "self-cleavage kobs at 640 uM GlcN6P", "s⁻¹", "<", "1e-05"),
    ("AUAAAAGCGCCAGAACUACAGAAAUGUAGUUGUCUAGGAGGUGUUUUAUCGAAUUUUCGGCGGAUGCCUCCAAA [A33U G35U A42U G44U]", "self-cleavage kobs at 640 uM GlcN6P", "s⁻¹", "<", "1e-05"),
    ("AUAAAAGCGCCAGAGAUACAGAAAUGUAGUUGACGAGGAGGAGGUUUAUCGAAUUUUAGGCGGUUGCCUUCAAA [A15G C16A C58A A64U C70U]", "self-cleavage kobs at 640 uM GlcN6P", "s⁻¹", "=", "8e-05"),
    ("AUAAAAGCGCCAGAACUACAGAAAUGUAGUUGACGAGGAGCAGCUUUAUCGAAUUUUCGGCGGAUGCCUCCAAA [G41C G44C]", "self-cleavage kobs at 640 uM GlcN6P", "s⁻¹", "<", "1e-05"),
    ("AUAAAAGCGCCAGAACUACAGAAAUGUACUGGACGUGGAGGAGGUUUAUCGAAUUUUCGGCGGAUGCCUCCAAA [G29C U31G A36U]", "self-cleavage kobs at 640 uM GlcN6P", "s⁻¹", "<", "1e-05"),
    ("AUAAAAGCCCCAGAACUACAGAAAUGUAGUUGACGAGGAGGAGGAUCAUCGAAUUUUCGGCGGAUGCGUCCAAA [G9C U45A U47C C68G]", "self-cleavage kobs at 640 uM GlcN6P", "s⁻¹", "<", "1e-05"),
    ("AUAAAAGCGCCAGAACUACAGAAAUGUAGUUGGCGAGGAGGAGGUUUAUCGAAUUUUCGCCGGAUGCCUCCAAA [A33G G60C]", "self-cleavage kobs at 640 uM GlcN6P", "s⁻¹", "<", "1e-05"),
    ("AUAAAAGCGACAGAACUACAGAAAUGUAGUUGACGAGGAGGACGUUUAUCGAAUUUUCGGCGGAUGCCUCCAAA [C10A G43C]", "self-cleavage kobs at 640 uM GlcN6P", "s⁻¹", "<", "1e-05"),
    ("AUAAAAGCGCCAGAAUUACAGAAAUGUAGUUGACGAGGAGGAGGUUUAUCGAAUUAUCGGCGGAUGCCUCCAAA [C16U U56A]", "self-cleavage kobs at 640 uM GlcN6P", "s⁻¹", "=", 0.00448),
    ("AUAAAAGCGCCAGAACUAUAGAAAUGUAGUUGACGAGGAGGAGGUUUAUCGAAUUUUCGGCGGAUGCCUCCAAA [C19U]", "self-cleavage kobs at 640 uM GlcN6P", "s⁻¹", "=", 0.00527),
    ("AUAAAAGCGCCAGGACUACAGAAAUGUAGUUGACGAGGAGGAGGUUUAUCGAAUUUUCGGCGGAUUCCUCCAAA [A14G G66U]", "self-cleavage kobs at 640 uM GlcN6P", "s⁻¹", "=", 0.00094),
    ("AUAAAAGCGCCAGAACUACAGAAAUGUAGUUGAAGAGGAGGAGGUUUAUCGAAUUUUCGGCGUAUGCCUCCAAA [C34A G63U]", "self-cleavage kobs at 640 uM GlcN6P", "s⁻¹", "<", "1e-05"),
    ("AUAAAAGUGCCAGAACUACAGAAAUGUACUUGACGAGGAGGAGGUUUAUCGAAUUUUCGGCGGAUGCCUCCAAA [C8U G29C]", "self-cleavage kobs at 640 uM GlcN6P", "s⁻¹", "<", "1e-05"),
    ("AUAAAGGCGCCAGAAAUACAGAAAUGUAGUUGACUAGGAGGAGGUUUUUCGAAUUUUCGGCGGAUGCCUCCAAA [A6G C16A G35U A48U]", "self-cleavage kobs at 640 uM GlcN6P", "s⁻¹", "<", "1e-05"),
    ("AUAAAAGCGUCAGAACUACAGAAAUGUAGUUGACGAGGAGGAGGUUUAUCGACUUUUCGGCGGAUGCCUCCAAA [C10U A53C]", "self-cleavage kobs at 640 uM GlcN6P", "s⁻¹", "<", "1e-05"),
    ("AUAAAAGCGCCUGAACUAUAGAAAUGUAGUUGACGAGGAGGAGGUUUAUCGAAUUUUCGGCGGAUGCCACCAAA [A12U C19U U69A]", "self-cleavage kobs at 640 uM GlcN6P", "s⁻¹", "=", 0.000392),
    ("AUAAAAGCGCCAGAACUACAGAAAUGUAGCUGACGAGGAGGAGGUUUAUCGAAUUUUCGGCAGAUGCCUCCAAA [U30C G62A]", "self-cleavage kobs at 640 uM GlcN6P", "s⁻¹", "<", "1e-05"),
    ("AUAAAAGCGCCAGAACUACAGAAAUGUAGUUGACGAGGAGGAGGUUUAUCGAAUUUUCGGCGGAUGUCCCCAAA [C67U U69C]", "self-cleavage kobs at 640 uM GlcN6P", "s⁻¹", "=", 0.000113),
    ("AUAAAAGCGCCAGAACUACAGAAAUGUAGUUGACGAGGAGGAGGUUUAUCGAAUUUGCGGCGGAUGGCUCCAAA [U57G C67G]", "self-cleavage kobs at 640 uM GlcN6P", "s⁻¹", "=", 0.000478),
    ("AUAAAAGCGCCAGAACUACAGAAAUGUAGUUGACGAGGAGGGGGUUCAUCGAAUUUUCGGCGGAUGCCUCCAAA [A42G U47C]", "self-cleavage kobs at 640 uM GlcN6P", "s⁻¹", "=", 0.00074),
    ("AUAAAAGCGCCAGAACUACAGAAAUGUAGUUGACGAGUAGGUGGUUUAUCGAAUUUUCGGCGGAUGCCUCCAAA [G38U A42U]", "self-cleavage kobs at 640 uM GlcN6P", "s⁻¹", "<", "1e-05"),
    ("AUAAAAGCGCAAGAACUACAGAAAUGUAGUUGACGAGGAGGAGGAUUAUCGAAUUUUCGGCGGAUGCCUCCAAA [C11A U45A]", "self-cleavage kobs at 640 uM GlcN6P", "s⁻¹", "=", "5.63e-05"),
    ("AUAAAAGCGCCAGAACUACAGAAAUGUAGUCGACGAGGAGGAGGUUUAUCGAAUUUUCGGCGGAUGCCUCCAAA [U31C]", "self-cleavage kobs at 640 uM GlcN6P", "s⁻¹", "=", 0.00208),
    ("AUAAAAACGCCAGAACUACAGAAAUGUAGUUGACGAGGAAGAGGUUUAUCGAGUUUUCGCCGGAUGCUUCCAAA [G7A G40A A53G G60C C68U]", "self-cleavage kobs at 640 uM GlcN6P", "s⁻¹", "<", "1e-05"),
    ("AUAAAAGCGCCAGAACUACAGAAAUGUAGUUGACGAGGAGGAGGUUCAUCGAAAUUUCGGCGGAUGCCUCCAAA [U47C U54A]", "self-cleavage kobs at 640 uM GlcN6P", "s⁻¹", "=", 0.00127),
    ("AUAAAAGCGCCAGAACUACAGAAAUGUAGUUGACGAGGAGGGGGUUUAUCGAAUUUUCGGCGGGUGCCUCCAAA [A42G A64G]", "self-cleavage kobs at 640 uM GlcN6P", "s⁻¹", "=", 0.00754),
    ("AUAAAAGCUCCAGAACUACAGAAAUGUAGUUGACGAGGAGGAGCUUUAUCGAAUUUUAGGCGGAUGCCUCCAAA [G9U G44C C58A]", "self-cleavage kobs at 640 uM GlcN6P", "s⁻¹", "<", "1e-05"),
    ("AUAAAAGCGCCAUCACUACAGAAAUGUAGUUAACGAGGAGGAGGUCUAUCGAAUUUUCGGCGAAUGCUGCUAAA [G13U A14C G32A U46C G63A C68U U69G C71U]", "self-cleavage kobs at 640 uM GlcN6P", "s⁻¹", "<", "1e-05"),
    ("AUAAAAGCGCCAGAACUACAGAAAUGUAGUUGACGAGGAGGAGGUUUAUCGAAUUUUAGGGGGAUGCUUCCAAA [C58A C61G C68U]", "self-cleavage kobs at 640 uM GlcN6P", "s⁻¹", "=", 0.000169),
]

Reference for the values: the supplement of paper PMC7125110
